// data source = patent US10703733B2

- STUDY SYSTEM: MCL-1/Bim interaction (recombinant human MCL-1 protein, residues 171-327; biotinylated human Bim peptide, residues 51-76) (Homo sapiens (Human), UniProt Q07820)
- Sequence (Q07820 171-327): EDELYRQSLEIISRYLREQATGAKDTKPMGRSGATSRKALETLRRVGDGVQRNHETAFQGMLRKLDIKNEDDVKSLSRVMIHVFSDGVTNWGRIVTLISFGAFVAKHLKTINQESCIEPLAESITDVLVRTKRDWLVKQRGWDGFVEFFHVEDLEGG
- ASSAY NOTES: MCL-1/Bim Binding AlphaLISA Assay
- CONDITION DETAILS: 0.0625 nM 6xHis-Mcl-1 (171-327), 0.0625 nM biotinylated-Bim peptide
Label yes (1) when IC50 < 0.09 nM; otherwise no (0).

[[record]]
compound = "CO[C@H]1/C=C/C[C@H](C)C[S@@](=O)(NC(=O)[C@H]2CCc3cnn(C)c3C2)=NC(=O)c2ccc3c(c2)N(C[C@@H]2CC[C@H]21)C[C@@]1(CCCc2cc(Cl)ccc21)CO3 (single isomer, unassigned)"
classification = "yes (1)"

[[record]]
compound = "CCn1ncc(C(=O)N[S@@]2(=O)=NC(=O)c3ccc4c(c3)N(C[C@@H]3CC[C@H]3[C@@H](OC)/C=C/C[C@H](C)C2)C[C@@]2(CCCc3cc(Cl)ccc32)CO4)n1"
classification = "yes (1)"

[[record]]
compound = "CO[C@H]1/C=C/C[C@H](C)C[S@@](=O)(NC(=O)c2ccc3c(c2)CCOC3)=NC(=O)c2ccc3c(c2)N(C[C@@H]2CC[C@H]21)C[C@@]1(CCCc2cc(Cl)ccc21)CO3"
classification = "no (0)"

[[record]]
compound = "CNC(=O)N[S@@]1(=O)=NC(=O)c2ccc3c(c2)N(C[C@@H]2CC[C@H]2[C@@H](OC)/C=C/C[C@H](C)C1)C[C@@]1(CCCc2cc(Cl)ccc21)CO3"
classification = "no (0)"

[[record]]
compound = "CCC(=O)N[S@@]1(=O)=NC(=O)c2ccc3c(c2)N(C[C@@H]2CC[C@H]2[C@@H](OC)CCCCC1)C[C@@]1(CCCc2cc(Cl)ccc21)CO3"
classification = "no (0)"

[[record]]
compound = "CO[C@H]1/C=C/C[C@H](C)C[S@@](=O)(NC(=O)Nc2ncccn2)=NC(=O)c2ccc3c(c2)N(C[C@@H]2CC[C@H]21)C[C@@]1(CCCc2cc(Cl)ccc21)CO3"
classification = "no (0)"

[[record]]
compound = "CO[C@H]1/C=C/C[C@H](C)C[S@@](=O)(NC(=O)N2CC(C(F)F)C2)=NC(=O)c2ccc3c(c2)N(C[C@@H]2CC[C@H]21)C[C@@]1(CCCc2cc(Cl)ccc21)CO3"
classification = "yes (1)"

[[record]]
compound = "CO[C@H]1/C=C/CCC[S@@](=O)(NC(=O)COC2CCOCC2)=NC(=O)c2ccc3c(c2)N(C[C@@H]2CC[C@H]21)C[C@@]1(CCCc2cc(Cl)ccc21)CO3"
classification = "no (0)"

[[record]]
compound = "CO[C@H]1/C=C/C[C@H](C)C[S@@](=O)(NC(=O)N[C@@H]2CC[C@@H](O)C2)=NC(=O)c2ccc3c(c2)N(C[C@@H]2CC[C@H]21)C[C@@]1(CCCc2cc(Cl)ccc21)CO3"
classification = "yes (1)"

[[record]]
compound = "CCC(=O)N[S@@]1(=O)=NC(=O)c2ccc3c(c2)N(C[C@@H]2CC[C@H]2[C@@H](OC)/C=C/C[C@H](C)[C@H]1C)C[C@@]1(CCCc2cc(Cl)ccc21)CO3"
classification = "no (0)"

[[record]]
compound = "COC(=O)N1CC[C@@H](C(=O)N[S@@]2(=O)=NC(=O)c3ccc4c(c3)N(C[C@@H]3CC[C@H]3[C@@H](OC)/C=C/C[C@H](C)C2)C[C@@]2(CCCc3cc(Cl)ccc32)CO4)C1"
classification = "no (0)"

[[record]]
compound = "CO[C@H]1/C=C/C[C@H](C)C[S@@](=O)(NC(=O)c2cnsc2)=NC(=O)c2ccc3c(c2)N(C[C@@H]2CC[C@H]21)C[C@@]1(CCCc2cc(Cl)ccc21)CO3"
classification = "no (0)"

[[record]]
compound = "COc1nn(C)cc1C(=O)N[S@@]1(=O)=NC(=O)c2ccc3c(c2)N(C[C@@H]2CC[C@H]2[C@@H](OC)/C=C\\C[C@H](C)C1)C[C@@]1(CCCc2cc(Cl)ccc21)CO3"
classification = "yes (1)"

